Hey, just so you know, these numbers are from patent US20240270821A1.

We begin with a simple list: items and their reported pEC50.
target: hGLP-1R (Homo sapiens, UniProt P43220); assay: Functional cAMP activity in the presence of 1% HSA; type: cell-based; settings: read-out: cAMP Rel EC50, hGLP-1R
Sequence (P43220 24-463): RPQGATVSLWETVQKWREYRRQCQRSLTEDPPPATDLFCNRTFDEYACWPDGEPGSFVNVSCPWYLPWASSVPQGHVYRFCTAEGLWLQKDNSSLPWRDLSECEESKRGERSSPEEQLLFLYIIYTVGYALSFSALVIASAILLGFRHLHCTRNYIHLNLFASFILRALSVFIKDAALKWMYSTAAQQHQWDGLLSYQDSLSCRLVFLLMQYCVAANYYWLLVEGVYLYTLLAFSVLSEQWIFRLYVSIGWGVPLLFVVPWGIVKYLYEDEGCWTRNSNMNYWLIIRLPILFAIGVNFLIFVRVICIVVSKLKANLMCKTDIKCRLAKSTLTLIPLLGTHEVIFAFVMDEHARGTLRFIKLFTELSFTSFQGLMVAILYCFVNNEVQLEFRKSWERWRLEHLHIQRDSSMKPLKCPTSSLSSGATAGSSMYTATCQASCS
Starred links: 1 amine or outer side, 2 acyl side, 3 side chain; linkers in the order of their positions; H or OH if unused. Non-standard residues stand in square brackets, D forms with d. Groups on a side chain read outwards from the residue. No end group written: not given here. *: point of attachment. C20 diacid = O=C(O)CCCCCCCCCCCCCCCCCCC(=O)*; C18 diacid = O=C(O)CCCCCCCCCCCCCCCCC(=O)*; αMePhe(2-F) = C[C@](N)(Cc1ccccc1F)C(=O)O; γGlu = O=C(O)[C@H](CCC(=O)[*:2])N[*:1]; 4Pal = N[C@@H](Cc1ccncc1)C(=O)O; αMeL = CC(C)C[C@](C)(N)C(=O)O; Orn = NCCC[C@H](N)C(=O)O; AEEA = NCCOCCOCC(=O)O; Aib = CC(C)(N)C(=O)O
// pEC50 is dimensionless: -log10 of concentration (M)

[
  {
    "substance": "H-Y[Aib]QGTFTSDFS[Orn][αMeL]LDKK([AEEA-γGlu-C20 diacid])AQ[Aib]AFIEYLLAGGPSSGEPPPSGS-NH2 [Example 92]",
    "measurement kind": "pEC50",
    "assay value": 6.13
  }
]

Input H-Y[Aib]QGTFTSDYSI[αMeL]LDKQAAK([AEEA-AEEA-γGlu-C20 diacid])QFVNWLLA[Aib]GPSSGEPPPSEG-NH2 [Example 325] . Output pEC50: 6.43

Input Y[Aib]QGT[αMePhe(2-F)]TSD[4Pal]SILLDKK([γGlu-γGlu-C18 diacid])AQ[Aib]AFIEWLQEGGPSSGAPPPSGTEE-NH2 [Example 578] . Output pEC50: 7.26
